System: U2OS
Assay: Multiplex assay against U2OS
Assay type: toxicity, cell-based
Settings: human, 24 h, 10 µM, compound concentration 10 uM, replicate 1
observable: Total Cell Count

- compound: "Cc1ccc(/C(=C\\CN2CCCC2)c2ccccn2)cc1"
  study-target: "U2OS"
  observable: "Total Cell Count"
  value-reported: 320
- compound: "Cc1ccccc1C(=O)Nc1ccc(C(=O)N2CCCC(N(C)C)c3ccccc32)cc1.Cl (stereo unspecified)"
  study-target: "U2OS"
  observable: "Total Cell Count"
  value-reported: 211
- compound: "C[C@@H]1C[C@H]2[C@@H]3CCC4=CC(=O)C=C[C@]4(C)[C@@]3(F)[C@@H](O)C[C@]2(C)[C@@]1(O)C(=O)CO"
  study-target: "U2OS"
  observable: "Total Cell Count"
  value-reported: 378
- compound: "Cc1ccc(C(C)(O)c2nc3ccccc3s2)c(C)c1 (stereo unspecified)"
  study-target: "U2OS"
  observable: "Total Cell Count"
  value-reported: 272
- compound: "O=C(NCC(=O)N1CC[C@H](N[C@H]2CC[C@@](O)(c3ccc(-c4ncccn4)cn3)CC2)C1)c1cccc(C(F)(F)F)c1"
  study-target: "U2OS"
  observable: "Total Cell Count"
  value-reported: 271
- compound: "O=C(NCCO)c1cccc(-c2cc(Nc3ccc(OC(F)(F)F)cc3)ncn2)c1"
  study-target: "U2OS"
  observable: "Total Cell Count"
  value-reported: 344
- compound: "Cc1ccc(F)cc1C(=O)Nc1ccc(C(=O)N2Cc3cccn3Cc3ccccc32)c(Cl)c1"
  study-target: "U2OS"
  observable: "Total Cell Count"
  value-reported: 207
- compound: "O=S(=O)(c1ccccc1)c1cnc2c(N3CCNCC3)cccc2c1 [INTEPIRDINE]"
  study-target: "U2OS"
  observable: "Total Cell Count"
  value-reported: 233
- compound: "CCCn1c(=O)c2[nH]c(C3CCCC3)nc2n(CCC)c1=O"
  study-target: "U2OS"
  observable: "Total Cell Count"
  value-reported: 234
- compound: "COc1c(C)cc(NC(=O)c2nn(Cc3ccc(F)cc3)c3c2CN(C(=O)c2ccc[nH]2)C[C@]3(C)C(N)=O)cc1C"
  study-target: "U2OS"
  observable: "Total Cell Count"
  value-reported: 216
- compound: "Oc1c(CN2CCN(c3ccccn3)CC2)cc(Cl)c2cccnc12"
  study-target: "U2OS"
  observable: "Total Cell Count"
  value-reported: 238
- compound: "COc1cc(NC(=O)CCN2CCC(OC(=O)Nc3ccccc3-c3ccccc3)CC2)c(Cl)cc1CNC[C@H](O)c1ccc(O)c2[nH]c(=O)ccc12"
  study-target: "U2OS"
  observable: "Total Cell Count"
  value-reported: 199
- compound: "CN1CCN(c2nc3cc(C(F)(F)F)ccc3n3cccc23)CC1.O=C(O)/C=C\\C(=O)O.O=C(O)/C=C\\C(=O)O"
  study-target: "U2OS"
  observable: "Total Cell Count"
  value-reported: 244
- compound: "CC[C@H]1OC(=O)[C@H](C)[C@@H](O[C@H]2C[C@@](C)(OC)[C@@H](O)[C@H](C)O2)[C@H](C)[C@@H](O[C@@H]2O[C@H](C)C[C@H](N(C)C)[C@H]2O)[C@@]2(C)CC(C)=C(O2)[C@H](C)[C@@H](O)[C@]1(C)O"
  study-target: "U2OS"
  observable: "Total Cell Count"
  value-reported: 210
- compound: "C[C@H](NC(=O)c1c(C(F)F)nn(C)c1Oc1cccc(C(F)(F)F)c1)c1ccc(C(=O)O)cc1"
  study-target: "U2OS"
  observable: "Total Cell Count"
  value-reported: 339
- compound: "CN(C)c1ccnc2sc3c(=O)n(N4CCCCCC4)cnc3c12"
  study-target: "U2OS"
  observable: "Total Cell Count"
  value-reported: 260
